Where do the numbers come from? From patent US20030162762A1.

test system: Staphylococcus aureus giorgio; test: Minimum Inhibitory Concentration (MIC), agar dilution, standard strains; type: cell-based; settings: Staphylococcus aureus; Table 2; Mueller-Hinton agar, 37° C., 20 hours; read-out: Minimum Inhibitory Concentration, Staphylococcus aureus giorgio
measurement.type: MIC (µg/mL)
API: value field is a number in µg/mL; no unit string.

O=C(CSc1cc(Cl)nc(Cl)c1)N[C@@H]1C(=O)N2C(C(=O)O)=C(/C=C/CSc3nc(O)cc(NCCO)n3)CS[C@H]12 ... 0.031
Nc1nc(O)cc(SC/C=C/C2=C(C(=O)O)N3C(=O)[C@@H](NC(=O)CSc4cc(Cl)nc(Cl)c4)[C@H]3SC2)n1 ... 0.016
Nc1cc(SC/C=C/C2=C(C(=O)O)N3C(=O)[C@@H](NC(=O)CSc4cc(Cl)nc(Cl)c4)[C@H]3SC2)nc(N)n1 ... 0.016
CCSc1nc(C)cc(SC/C=C/C2=C(C(=O)O)N3C(=O)[C@@H](NC(=O)CSc4cc(Cl)nc(Cl)c4)[C@H]3SC2)n1 ... 0.031
Nc1nc(SC/C=C/C2=C(C(=O)O)N3C(=O)[C@@H](NC(=O)CSc4cc(Cl)nc(Cl)c4)[C@H]3SC2)nc2[nH]ncc12 ... 0.031

What MIC appears in the records for this compound with Staphylococcus aureus giorgio? Nc1cc(N)nc(SC/C=C/C2=C(C(=O)O)N3C(=O)[C@@H](NC(=O)CSc4cc(Cl)nc(Cl)c4)[C@H]3SC2)n1
0.031

---

Listing of entries alongside the reported MIC.
test system: S. aureus 77; experiment: Minimum Inhibitory Concentration (MIC), agar dilution, standard strains; format: cell-based, Staphylococcus aureus; conditions: Staphylococcus aureus, 77; Table 1; Mueller-Hinton agar, 37° C., 20 hours; read-out: Minimum Inhibitory Concentration, S. aureus 77
Could you kindly put the unit after your number?

Consider the reported MIC for these compounds:
Nc1cc(SC/C=C/C2=C(C(=O)O)N3C(=O)[C@@H](NC(=O)CSc4cc(Cl)ccc4Cl)[C@H]3SC2)nc(N)n1 [Compound I-3] ... 0.13 µg/mL
Nc1nc(SC/C=C/C2=C(C(=O)O)N3C(=O)[C@@H](NC(=O)CSc4cc(Cl)ccc4Cl)[C@H]3SC2)nc2c1CCC2 [Compound I-20] ... 2 µg/mL

# query: MIC of entry CSc1nc(C)cc(SC/C=C/C2=C(C(=O)O)N3C(=O)[C@@H](NC(=O)CSc4cc(Cl)ccc4Cl)[C@H]3SC2)n1 [Compound I-28]
0.25 µg/mL

Look up MIC: CNc1cc(N)nc(SC/C=C/C2=C(C(=O)O)N3C(=O)[C@@H](NC(=O)CSc4cc(Cl)ccc4Cl)[C@H]3SC2)n1 [Compound I-30]
0.5 µg/mL

Consider the compound shown here: Cc1c(N)nc(SC/C=C/C2=C(C(=O)O)N3C(=O)[C@@H](NC(=O)CSc4cc(Cl)ccc4Cl)[C@H]3SC2)nc1N [Compound I-26] What is its recorded MIC?
1 µg/mL

Returns the measured MIC for the input compound. Input: Nc1cc(N)nc(SC/C=C/C2=C(C(=O)O)N3C(=O)[C@@H](NC(=O)CSc4cc(Cl)ccc4Cl)[C@H]3SC2)n1 [Compound I-24]
0.25 µg/mL

May I ask what MIC has been recorded for Nc1nc(O)cc(SC/C=C/C2=C(C(=O)O)N3C(=O)[C@@H](NC(=O)CSc4cc(Cl)ccc4Cl)[C@H]3SC2)n1 [Compound I-1] ?
0.25 µg/mL

# query: MIC of entry Nc1ncnc(SC/C=C/C2=C(C(=O)O)N3C(=O)[C@@H](NC(=O)CSc4cc(Cl)ccc4Cl)[C@H]3SC2)c1N [Compound I-25]
0.5 µg/mL
